MEASUREMENT_TARGET: BLM642-1290 H798A (UniProt P54132 642-1290, H798A)
Sequence (P54132 642-1290 H798A): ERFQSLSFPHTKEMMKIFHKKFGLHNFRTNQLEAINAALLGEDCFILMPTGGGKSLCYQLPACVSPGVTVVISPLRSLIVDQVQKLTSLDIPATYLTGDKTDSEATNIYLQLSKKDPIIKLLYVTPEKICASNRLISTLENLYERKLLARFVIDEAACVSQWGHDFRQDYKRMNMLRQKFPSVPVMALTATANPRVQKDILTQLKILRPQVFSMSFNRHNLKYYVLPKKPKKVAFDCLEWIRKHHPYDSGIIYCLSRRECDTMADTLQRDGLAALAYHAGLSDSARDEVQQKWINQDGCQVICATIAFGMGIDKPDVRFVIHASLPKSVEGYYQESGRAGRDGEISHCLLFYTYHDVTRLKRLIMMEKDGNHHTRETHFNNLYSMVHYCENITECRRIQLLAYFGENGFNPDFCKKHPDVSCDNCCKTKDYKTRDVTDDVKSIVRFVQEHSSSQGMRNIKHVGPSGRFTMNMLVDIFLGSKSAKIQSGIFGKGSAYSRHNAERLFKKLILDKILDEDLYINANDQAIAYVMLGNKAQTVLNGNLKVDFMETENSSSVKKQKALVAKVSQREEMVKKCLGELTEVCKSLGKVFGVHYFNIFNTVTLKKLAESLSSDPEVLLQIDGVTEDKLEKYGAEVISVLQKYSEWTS
ASSAY_NAME: fluorescence anisotropy
EXPERIMENTAL_READOUT: Kd (nM)

[
  {
    "BINDER": "GGGTTAGGGTTAGGGTTAGGG (ssDNA) [oligonucleotide D (21-mer)]",
    "READING_UNIT": "nM",
    "REPORTED_MEASUREMENT": 5.03
  }
]
